Can you tell me IC50 for the items I'm about to list?
Target: human P2X2/3 receptor (Homo sapiens (Human), UniProt P56373+Q9UBL9)
Sequence (P56373 whole entry): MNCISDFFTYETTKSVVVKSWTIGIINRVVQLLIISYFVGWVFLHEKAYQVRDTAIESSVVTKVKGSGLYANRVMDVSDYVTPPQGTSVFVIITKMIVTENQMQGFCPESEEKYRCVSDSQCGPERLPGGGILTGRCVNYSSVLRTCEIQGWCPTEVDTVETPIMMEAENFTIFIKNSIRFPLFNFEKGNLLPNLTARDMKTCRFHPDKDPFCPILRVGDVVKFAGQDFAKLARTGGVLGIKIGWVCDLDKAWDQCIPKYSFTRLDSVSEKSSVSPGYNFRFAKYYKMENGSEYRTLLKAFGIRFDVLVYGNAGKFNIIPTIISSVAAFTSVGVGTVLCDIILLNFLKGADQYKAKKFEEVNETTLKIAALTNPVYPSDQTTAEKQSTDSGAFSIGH
Sequence (Q9UBL9 whole entry): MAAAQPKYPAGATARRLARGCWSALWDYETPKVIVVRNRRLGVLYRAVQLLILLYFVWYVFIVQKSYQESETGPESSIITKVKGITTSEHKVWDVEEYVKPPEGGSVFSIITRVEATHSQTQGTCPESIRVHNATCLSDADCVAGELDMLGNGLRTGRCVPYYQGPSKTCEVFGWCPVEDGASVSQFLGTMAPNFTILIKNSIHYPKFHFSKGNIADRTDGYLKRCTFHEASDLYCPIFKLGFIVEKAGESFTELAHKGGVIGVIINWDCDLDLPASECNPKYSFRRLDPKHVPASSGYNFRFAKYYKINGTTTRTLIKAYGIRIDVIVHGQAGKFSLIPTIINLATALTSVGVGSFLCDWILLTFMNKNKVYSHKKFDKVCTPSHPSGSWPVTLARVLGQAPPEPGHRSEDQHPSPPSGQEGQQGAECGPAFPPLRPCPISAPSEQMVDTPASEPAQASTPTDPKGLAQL
Assay: Intracellular calcium measurement (FLIPR, Fluo-4) of antagonist activity at human P2X2/3 receptors
Format: cell-based
Conditions: human P2X2/3, FLIPR calcium assay, agonist α,β-Me-ATP; read-out: hP2X2/3 IC50
Just the number in nM, nothing appended.

The compound listed as Cc1cnc(-c2cc(OC[C@H]3COCCO3)cc(C(=O)N[C@H](C)c3ccc(C(F)(F)F)nn3)c2)s1 [Example 179] shows IC50 equal to 703

The compound listed as Cc1cnc(-c2cc(OC3CC4CC3CN4C)cc(C(=O)N[C@H](C)c3cnc(C(F)(F)F)nc3)c2)s1 (stereo partly shown) [Example 209] shows IC50 equal to 1470

The compound listed as C[C@@H](NC(=O)c1cc(OC[C@@H]2CCCO2)cc(-c2ncc(C3CCC3)s2)c1)c1cnc(C(F)(F)F)nc1 [Example 287] shows IC50 equal to 275

---

Molecular target: human P2X2/3 receptor (Homo sapiens (Human), UniProt P56373+Q9UBL9)
Experiment: Intracellular calcium measurement (FLIPR, Fluo-4) of antagonist activity at human P2X2/3 receptors
Format: cell-based
Conditions: human P2X2/3, FLIPR calcium assay, agonist α,β-Me-ATP; read-out: hP2X2/3 IC50
Can you tell me pIC50 for the items I'm about to list?
Remember the convention: pIC50 equals -log10 of concentration in molar.

The molecule listed as Cc1cnc(-c2cc(OC[C@@H]3CN(C)CCO3)cc(C(=O)N[C@H](C)c3ccc(C(F)(F)F)nn3)c2)s1 shows pIC50 equal to 5.59

The molecule listed as Cc1cnc(-c2cc(OC3CCOCC3)cc(C(=O)NC(C)c3ncc(F)cc3Cl)c2)s1 (stereo not shown) shows pIC50 equal to 6.47

The molecule listed as Cc1cnc(-c2cc(OC[C@@H]3CCOC3)cc(C(=O)NC(C)c3ncc(Cl)cc3F)c2)s1 (stereo partly shown) shows pIC50 equal to 7.08

The molecule listed as Cc1ccc(CNC(=O)c2cc(OCC3CCOCC3)cc(-c3ncc(C)s3)c2)nn1 shows pIC50 equal to 6.41

---

Molecular target: human P2X2/3 receptor (Homo sapiens (Human), UniProt P56373+Q9UBL9)
Assay: Intracellular calcium measurement (FLIPR, Fluo-4) of antagonist activity at human P2X2/3 receptors
Format: cell-based
Conditions: human P2X2/3, FLIPR calcium assay, agonist α,β-Me-ATP; read-out: hP2X2/3 IC50
Can you tell me IC50 for the items I'm about to list?
Just the number in nM, nothing appended.

Cc1ccc([C@@H](C)NC(=O)c2cc(OC[C@H]3CCOC3)cc(-c3ncc(C)s3)c2)nn1 on human P2X2/3 receptor (Homo sapiens (Human), UniProt P56373+Q9UBL9) gives IC50 = 315

Cc1cnc(-c2cc(O[C@@H]3CCOC3)cc(C(=O)NCc3cnc(C(F)(F)F)nc3)c2)s1 on human P2X2/3 receptor (Homo sapiens (Human), UniProt P56373+Q9UBL9) gives IC50 = 461

Cc1cnc(-c2cc(O[C@@H]3CCOC3)cc(C(=O)N[C@H](C)c3cnc(C(F)(F)F)cn3)c2)s1 on human P2X2/3 receptor (Homo sapiens (Human), UniProt P56373+Q9UBL9) gives IC50 = 132

CCc1cnc(-c2cc(O[C@H]3CCOC3)cc(C(=O)N[C@H](C)c3ccc(C)nn3)c2)s1 on human P2X2/3 receptor (Homo sapiens (Human), UniProt P56373+Q9UBL9) gives IC50 = 57

CC(C)c1cnc(-c2cc(OC[C@H]3CCOC3)cc(C(=O)N[C@H](C)c3cnc(C(F)(F)F)nc3)c2)s1 on human P2X2/3 receptor (Homo sapiens (Human), UniProt P56373+Q9UBL9) gives IC50 = 198

Cc1cnc([C@@H](C)NC(=O)c2cc(Oc3nccs3)cc(-c3ncc(C)s3)c2)cn1 on human P2X2/3 receptor (Homo sapiens (Human), UniProt P56373+Q9UBL9) gives IC50 = 772

CCc1cnc(-c2cc(OC[C@@H]3CN(C)CCO3)cc(C(=O)N[C@H](C)c3cnc(C(F)(F)F)nc3)c2)s1 on human P2X2/3 receptor (Homo sapiens (Human), UniProt P56373+Q9UBL9) gives IC50 = 185

Cc1cnc(-c2cc(OC[C@H]3CN(CC(F)F)CCO3)cc(C(=O)N[C@H](C)c3cnc(C(F)(F)F)nc3)c2)s1 on human P2X2/3 receptor (Homo sapiens (Human), UniProt P56373+Q9UBL9) gives IC50 = 840

COc1ccc(CNC(=O)c2cc(OC3CCOCC3)cc(-c3ncc(C)s3)c2)nn1 on human P2X2/3 receptor (Homo sapiens (Human), UniProt P56373+Q9UBL9) gives IC50 = 217

Cc1cnc(-c2cc(O[C@@H]3CCOC3)cc(C(=O)NC(C)c3ncc(Cl)cc3F)c2)s1 (stereo partly shown) on human P2X2/3 receptor (Homo sapiens (Human), UniProt P56373+Q9UBL9) gives IC50 = 88
